- System under test: human Gal-1 (hGal-1) (Homo sapiens, UniProt P09382, C131S/C17S/C43S/C61S/C89S)
- Test: Competitive binding assay: biotinylated hGal-1 binding to microplate-adsorbed asialofetuin (ASF)
- Condition notes: IC50 values from several measurements given as geomean
Reported values of IC50 for individual entries
Please answer using a numeric value trailed by its unit.

>>> df
                                   compound  assay_metric  reported_measurement
0  CO[C@@H]1[C@@H](n2cc(-c3ccc(C#N)c(F)c3F)nn2)[C@@H](O)[C@@H](CO)O[C@@H]1Cc1cn(C2(C(F)F)COC2)nn1 [Ex 5.1.53.]          IC50               1350 nM
1  CO[C@@H]1[C@@H](n2cc(-c3ccc(F)c(F)c3F)nn2)[C@@H](O)[C@@H](CO)O[C@@H]1Cn1cc(C2(CO)CC2)nn1 [Ex 3.2.4.]          IC50                650 nM
2  CO[C@@H]1[C@@H](n2cc(-c3ccc(C)c(F)c3F)nn2)[C@@H](O)[C@@H](CO)O[C@@H]1Cn1cc(C2(O)CCC2)nn1 [Ex 1.2.31.]          IC50               3760 nM

Lab book: IC50 of CO[C@@H]1[C@@H](n2cc(-c3ccc(F)c(F)c3F)nn2)[C@@H](O)[C@@H](CO)O[C@@H]1Cn1cc(C2(O)CC2)nn1 [Ex 3.2.36.] noted as 2140 nM

Taken from patent US20240109930A1.
